- assayed target: Macaca fascicularis IL-36R extracellular domain expressed with a C-terminal myc-myc-hexahistidine tag (Macaca fascicularis)
- experiment notes: SPR Biacore T200, mAb captured by anti-hFc, 37C, PBS-T pH 7.4
Would you kindly list t½ for each of these binders?
Numbers only, in min.

Below are worked cases with known answers.
binder	units symbol	t½
H4H14728P (antibody, human IgG4 S228P, kappa, V domains shown) VH: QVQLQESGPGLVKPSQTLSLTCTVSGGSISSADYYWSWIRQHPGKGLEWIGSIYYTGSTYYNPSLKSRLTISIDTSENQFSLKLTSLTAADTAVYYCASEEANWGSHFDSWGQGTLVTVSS VL: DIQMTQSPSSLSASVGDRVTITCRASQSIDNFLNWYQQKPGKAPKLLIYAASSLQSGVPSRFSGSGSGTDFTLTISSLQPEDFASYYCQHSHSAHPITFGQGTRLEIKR	min	8
H4H14708P2 (antibody, human IgG4 S228P, kappa, V domains shown) VH: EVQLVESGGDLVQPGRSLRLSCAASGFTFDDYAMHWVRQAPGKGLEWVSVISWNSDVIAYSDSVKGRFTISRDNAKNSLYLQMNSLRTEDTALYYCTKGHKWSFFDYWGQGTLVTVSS VL: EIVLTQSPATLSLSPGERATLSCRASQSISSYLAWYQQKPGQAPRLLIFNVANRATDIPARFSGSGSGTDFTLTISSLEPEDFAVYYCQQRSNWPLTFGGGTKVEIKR	min	7
H4H14709P (antibody, human IgG4 S228P, kappa, V domains shown) VH: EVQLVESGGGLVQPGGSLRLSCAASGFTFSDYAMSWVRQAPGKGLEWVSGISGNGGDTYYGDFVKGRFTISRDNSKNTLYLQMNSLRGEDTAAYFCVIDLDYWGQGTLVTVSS VL: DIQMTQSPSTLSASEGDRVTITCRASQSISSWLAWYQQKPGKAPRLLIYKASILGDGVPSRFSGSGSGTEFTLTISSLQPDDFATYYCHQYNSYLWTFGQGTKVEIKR	min	12
H4H14700P2 (antibody, human IgG4 S228P, kappa, V domains shown) VH: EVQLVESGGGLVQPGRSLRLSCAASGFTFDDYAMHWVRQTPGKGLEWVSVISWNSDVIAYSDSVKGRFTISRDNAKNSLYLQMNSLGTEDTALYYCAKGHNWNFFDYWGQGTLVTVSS VL: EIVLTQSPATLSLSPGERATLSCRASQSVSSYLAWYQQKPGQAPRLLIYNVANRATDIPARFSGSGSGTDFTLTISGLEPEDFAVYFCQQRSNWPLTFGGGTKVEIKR	min	6

Exercise: Given the entry H4H14731P (antibody, human IgG4 S228P, kappa, V domains shown) VH: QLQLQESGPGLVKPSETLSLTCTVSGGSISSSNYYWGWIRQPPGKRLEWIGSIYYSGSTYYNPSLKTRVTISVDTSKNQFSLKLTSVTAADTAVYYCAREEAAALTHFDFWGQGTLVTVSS VL: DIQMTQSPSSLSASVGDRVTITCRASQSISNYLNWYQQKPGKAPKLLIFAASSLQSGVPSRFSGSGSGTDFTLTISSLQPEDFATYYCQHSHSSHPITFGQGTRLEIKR , report its measured t½.
Key: 3
